# Tested on: L. acidophilus NCFM
# Assay Method Text: RNA-seq transcriptional analysis of L. acidophilus NCFM growing on plant glycosides
# Format: cell-based, Lactobacillus acidophilus
# Experimental Setup: LBA1468 Beta-galactosidase small subunit, COG G
Measured Metric: Log2 differential normalized TPM ratio compared to glucose
Lab note: jot the number down without any unit.

Field Log2 differential normalized TPM ratio compared to glucose (system: L. acidophilus NCFM) for entry OCc1ccccc1O[C@@H]1O[C@H](CO)[C@@H](O)[C@H](O)[C@H]1O = 1

Field Log2 differential normalized TPM ratio compared to glucose (system: L. acidophilus NCFM) for entry OC[C@H]1O[C@@H](O[C@H]2[C@H](O)[C@@H](O)[C@@H](O)O[C@@H]2CO)[C@H](O)[C@@H](O)[C@H]1O = 6.4

Field Log2 differential normalized TPM ratio compared to glucose (system: L. acidophilus NCFM) for entry O=c1ccc2cc(O[C@@H]3O[C@H](CO)[C@@H](O)[C@H](O)[C@H]3O)c(O)cc2o1 = 0.8

Field Log2 differential normalized TPM ratio compared to glucose (system: L. acidophilus NCFM) for entry N#C[C@H](O[C@@H]1O[C@H](CO[C@@H]2O[C@H](CO)[C@@H](O)[C@H](O)[C@H]2O)[C@@H](O)[C@H](O)[C@H]1O)c1ccccc1 = 1.8
